SUBJECT_OF_TEST: T1, mTet3-CXXC K88A (Mus musculus (mouse), UniProt Q8BG87 51-96, K88A)
T1 chain: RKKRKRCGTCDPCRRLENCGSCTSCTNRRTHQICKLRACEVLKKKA
TEST_PROTOCOL: ITC
PROPERTY: pKd
Note on units: pKd is unitless, being -log10 of a concentration expressed in mol/L.

Exam item: Return pKd for the following binder: CCG DNA (dsDNA) DNA 1: GAATCCGGATTC DNA 2: GAATCCGGATTC
Marked response: 5.27
